Test system: Two-Spotted Spider Mite
Assay: Protocol 1 Two-Spotted Spider Mite (MTA) foliar spray test
Format: in vivo, Tetranychus urticae
Details: Protocol 1, DOSE 150; percentage of mites killed 1-day post-treatment
Procedure: A test solution containing 1250 parts per million (ppm) was prepared by dissolving the test compound in […] of a second solvent (acetone: water, 1:1) to give an acetone:water: methanol system of 50: 40:10. The enclosed spraying chamber consisted of a single spray nozzle mounted on a boom moving at a fixed speed and distance over stationary targets. […]
attributeMeasured: MTA

* CCCCCCn1nc(-c2ccc(Cl)cc2)ncc1=O [Compound 262] | 0%

compound O=c1cnc(-c2cc(Cl)cc(Cl)c2)nn1CC(F)(F)F [Compound 248] , MTA observed: 100%

compound O=c1cnc(C2CCCCC2)nn1CC(F)(F)F [Compound 251] , MTA observed: 75%

compound CCCCN1N=C(c2ccc(F)c(F)c2)NCC1=O [Compound 69] , MTA observed: 68%

====

Overview of reported BB across a group of compounds:
System: Mexican Bean Beetle
Test: Protocol 1 Mexican Bean Beetle (BB) foliar spray test
Type: in vivo, Epilachna verivestis
Settings: Protocol 1, DOSE 150; control rated after 48 hours (100 = all larvae dead)
// keep it numeric: no unit symbol after the value

Answered examples (3):
* CCC(C)N1N=C(C2CCCCC2)NCC1=O (stereo not shown) [Compound 48] | 0
* O=c1cnc(C2CCCCC2)nn1CC(F)(F)F [Compound 251] | 50
* CCC(C)n1nc(C2CCCCC2)ncc1=O (stereo not shown) [Compound 255] | 90

// switching to the query compound
compound O=c1cnc(-c2ccc(Cl)cc2)nn1C1CCCCC1 [Compound 256] , BB observed: 0

====

System: Two-Spotted Spider Mite
Test: Protocol 1 Two-Spotted Spider Mite (MTA) foliar spray test
Type: in vivo, Tetranychus urticae
Conditions: Protocol 1, DOSE 150; percentage of mites killed 1-day post-treatment
Procedure: A test solution containing 1250 parts per million (ppm) was prepared by dissolving the test compound in […] of a second solvent (acetone: water, 1:1) to give an acetone:water: methanol system of 50: 40:10. The enclosed spraying chamber consisted of a single spray nozzle mounted on a boom moving at a fixed speed and distance over stationary targets. […]
attributeMeasured: MTA

The measured MTA that "CCCCn1nc(-c2cc(Cl)cc(Cl)c2)ncc1=O" showed for Two-Spotted Spider Mite is 93%

The measured MTA that CCCC(C)n1nc(-c2ccc(Cl)cc2)ncc1=O (stereo not drawn) showed for Two-Spotted Spider Mite is 100%

The measured MTA that CCC(C)N1N=C(C2CCCCC2)NCC1=O (stereo not drawn) showed for Two-Spotted Spider Mite is 75%

The measured MTA that "O=C1CNC(c2cc(Cl)cc(Cl)c2)=NN1CC1CC1" showed for Two-Spotted Spider Mite is 90%

The measured MTA that "CCN1N=C(c2ccc(Cl)c(Cl)c2)NCC1=O" showed for Two-Spotted Spider Mite is 25%

The measured MTA that "C=COC(=O)N1CC(=O)N(CCCC)N=C1c1cc(Cl)cc(Cl)c1" showed for Two-Spotted Spider Mite is 95%

====

Overview of reported BB across a group of molecules:
Test system: Mexican Bean Beetle
Assay: Protocol 1 Mexican Bean Beetle (BB) foliar spray test
Format: in vivo, Epilachna verivestis
Settings: Protocol 1, DOSE 300; control rated after 48 hours (100 = all larvae dead)

- CC(=O)N1CC(=O)N(CC(F)(F)F)N=C1c1ccc(Cl)cc1 [Compound 40]: 50
- CN1CC(=O)N(CC(F)(F)F)N=C1c1ccccc1 [Compound 34]: 75

The measured BB that O=C1CNC(c2cccc(Cl)c2)=NN1CC(F)(F)F [Compound 37] showed for Mexican Bean Beetle is 75

The measured BB that O=C1CNC(c2ccc(Cl)cc2)=NN1c1ccccc1 [Compound 29] showed for Mexican Bean Beetle is 0

The measured BB that O=c1cnc(-c2ccc(Cl)cc2)nn1Cc1ccccc1 [Compound 240] showed for Mexican Bean Beetle is 75

The measured BB that COC1NC(c2ccc(Cl)cc2)=NN(CC(F)(F)F)C1=O (stereo not shown) [Compound 26] showed for Mexican Bean Beetle is 50

The measured BB that CCC#CCn1nc(-c2ccc(Cl)cc2)ncc1=O [Compound 8] showed for Mexican Bean Beetle is 0
